Each record here notes measured melting point.

O=C(c1ccc(F)cc1)N1CCC[C@H](c2noc(-c3cc([N+](=O)[O-])c[nH]3)n2)C1 [Example 36] ... 157 to 158 °C

**Q:** Look up melting point for this compound: Cc1oncc1C(=O)N1CCC[C@H](c2nc(-c3ccc[nH]3)no2)C1 [Example 20]
**A:** 125 to 127 °C

**Q:** Data request, read-out melting point, for O=C(c1ccc(F)cc1)N1CCCC(F)(c2nc(-c3ccc[nH]3)no2)C1 (stereo not shown) [Example 47]
**A:** 114.8 to 118 °C

**Q:** Fill in the blank: the reported melting point of Cc1c[nH]c(-c2nc([C@H]3CCCN(C(=O)c4ccc(F)cc4)C3)no2)c1 [Example 27] is ____.
**A:** 183 °C

###

Overview of reported EC50 across a group of molecules:
biological target: rat mGluR5 receptor (Rattus norvegicus, UniProt P31424); assay: mGluR5 assay on HEK-expressing rat mGluR5 (fluorescent cell based Ca2+ mobilization assay); conditions: HEK-293 cells stably expressing rat mGluR5; no co-addition of glutamate; mean of at least three independent experiments in duplicate; read-out: Ca++ Flux (mean EC50)
Sequence (P31424 21-1171 isoform P31424-2 limits assumed): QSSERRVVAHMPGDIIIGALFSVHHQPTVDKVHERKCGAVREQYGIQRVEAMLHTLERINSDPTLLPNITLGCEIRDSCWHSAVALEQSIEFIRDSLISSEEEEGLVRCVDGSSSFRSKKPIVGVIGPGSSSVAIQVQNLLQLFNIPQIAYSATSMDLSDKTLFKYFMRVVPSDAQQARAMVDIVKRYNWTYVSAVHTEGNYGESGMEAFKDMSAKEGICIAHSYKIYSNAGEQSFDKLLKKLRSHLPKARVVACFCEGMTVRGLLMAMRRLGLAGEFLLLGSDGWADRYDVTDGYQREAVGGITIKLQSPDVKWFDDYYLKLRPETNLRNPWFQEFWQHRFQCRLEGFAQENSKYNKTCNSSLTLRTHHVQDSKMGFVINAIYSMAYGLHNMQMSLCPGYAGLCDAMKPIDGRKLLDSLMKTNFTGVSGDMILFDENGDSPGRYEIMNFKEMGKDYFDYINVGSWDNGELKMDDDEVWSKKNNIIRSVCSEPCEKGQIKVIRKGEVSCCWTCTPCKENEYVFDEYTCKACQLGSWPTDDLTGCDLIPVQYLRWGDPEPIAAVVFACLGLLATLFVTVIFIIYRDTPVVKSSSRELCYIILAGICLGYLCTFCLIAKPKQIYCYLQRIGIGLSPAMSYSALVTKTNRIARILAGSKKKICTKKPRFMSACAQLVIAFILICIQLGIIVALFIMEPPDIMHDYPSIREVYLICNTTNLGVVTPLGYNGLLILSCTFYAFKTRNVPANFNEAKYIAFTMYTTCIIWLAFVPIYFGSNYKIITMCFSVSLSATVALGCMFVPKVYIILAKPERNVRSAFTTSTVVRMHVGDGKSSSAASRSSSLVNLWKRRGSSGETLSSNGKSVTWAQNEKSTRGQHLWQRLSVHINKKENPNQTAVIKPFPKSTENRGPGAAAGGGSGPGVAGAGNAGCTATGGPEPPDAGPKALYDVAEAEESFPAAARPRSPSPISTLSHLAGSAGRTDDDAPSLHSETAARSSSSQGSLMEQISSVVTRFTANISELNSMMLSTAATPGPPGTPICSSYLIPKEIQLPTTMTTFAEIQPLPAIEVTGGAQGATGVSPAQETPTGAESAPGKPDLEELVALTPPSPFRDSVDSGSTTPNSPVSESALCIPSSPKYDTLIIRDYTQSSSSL

Example cases with answers are listed next.
CC1(C)CC(c2nc(-c3ccc[nH]3)no2)CN(C(=O)c2ccc(F)cc2)C1 (centres unmarked) [Example 49] ... 1000 to 10000 nM
O=C(c1ccc(F)nc1)N1CCC[C@H](c2nc(-c3cc(F)c[nH]3)no2)C1 [Example 52] ... < 1000 nM
Cc1oncc1C(=O)N1CCC[C@H](c2nc(-c3cc4ccccc4[nH]3)no2)C1 [Example 19] ... 1000 to 10000 nM
O=C(c1ccc(F)nc1)N1CCCC(c2noc(-c3cc4ccccc4[nH]3)n2)C1 (centres unmarked) [Example 23] ... 1000 to 10000 nM
O=C(c1ccc(F)nc1)N1CCC[C@H](c2nc(-c3ccc[nH]3)no2)C1 [Example 4] ... 1000 to 10000 nM
O=C(c1ccc(F)nc1)N1CCCC(c2noc(-c3ccc[nH]3)n2)C1 (centres unmarked) [Example 8] ... 1000 to 10000 nM
Cc1oncc1C(=O)N1CCC[C@H](c2noc(-c3cc(Cl)c[nH]3)n2)C1 [Example 42] ... < 1000 nM
O=C(c1ccc(F)nc1)N1CCC[C@H](c2noc(-c3ccc[nH]3)n2)C1 [Example 21] ... < 1000 nM

**Q:** Quick check: EC50 of O=C(c1ccc(F)c(F)c1)N1CCC[C@H](c2nc(-c3cc4ccccc4[nH]3)no2)C1 [Example 15] ?
**A:** > 10000 nM

**Q:** // lookup EC50 for O=C(c1ccc(F)c(F)c1)N1CCC[C@H](c2nc(-c3ccc[nH]3)no2)C1 [Example 3]
**A:** < 1000 nM

**Q:** // returns reported EC50 for input O=C(c1ccc(F)cc1)N1CCC[C@H](c2nc(-c3cc(Cl)c[nH]3)no2)C1 [Example 43]
**A:** < 1000 nM

**Q:** Could you share which EC50 value was measured for O=C(c1ccc(F)cc1)N1CCC[C@H](c2nc(-c3cc4ccccc4[nH]3)no2)C1 [Example 16] ?
**A:** 1000 to 10000 nM

**Q:** Looking for the measured EC50 of O=C(c1ccc(F)cc1)N1CCC[C@H](c2noc(-c3cc(Cl)c[nH]3)n2)C1 [Example 39] , can you help?
**A:** < 1000 nM

**Q:** For the molecule O=C(c1ccnc(F)c1)N1CCC[C@H](c2nc(-c3cc(F)c[nH]3)no2)C1 [Example 53] , what EC50 is on record?
**A:** < 1000 nM

**Q:** Would you mind telling me what EC50 value was observed for O=C(c1ccc(F)cc1F)N1CCCC(c2noc(-c3ccc[nH]3)n2)C1 (centres unmarked) [Example 6] ?
**A:** < 1000 nM

**Q:** What does the record list as EC50 for O=C(c1ccc(F)cc1)N1CCC[C@H](c2nc(-c3cc(Br)c[nH]3)no2)C1 [Example 45] ?
**A:** < 1000 nM

**Q:** Consider the molecule O=C(c1ccc(F)cc1)N1CCC[C@H](c2noc(-c3nc(C(F)(F)F)c[nH]3)n2)C1 [Example 55] and give its measured EC50.
**A:** 1000 to 10000 nM

###

target: mGluR5 (Rattus norvegicus, UniProt P31424); construct: positive allosteric modulators of mGluR5 receptors in native preparations; endogenous in cells; assay: mGluR5 binding assay ([3H]-MPEP, rat brain membranes); settings: 3 nM [3H]-MPEP, 1 h at 4° C.
Sequence (P31424 21-1203): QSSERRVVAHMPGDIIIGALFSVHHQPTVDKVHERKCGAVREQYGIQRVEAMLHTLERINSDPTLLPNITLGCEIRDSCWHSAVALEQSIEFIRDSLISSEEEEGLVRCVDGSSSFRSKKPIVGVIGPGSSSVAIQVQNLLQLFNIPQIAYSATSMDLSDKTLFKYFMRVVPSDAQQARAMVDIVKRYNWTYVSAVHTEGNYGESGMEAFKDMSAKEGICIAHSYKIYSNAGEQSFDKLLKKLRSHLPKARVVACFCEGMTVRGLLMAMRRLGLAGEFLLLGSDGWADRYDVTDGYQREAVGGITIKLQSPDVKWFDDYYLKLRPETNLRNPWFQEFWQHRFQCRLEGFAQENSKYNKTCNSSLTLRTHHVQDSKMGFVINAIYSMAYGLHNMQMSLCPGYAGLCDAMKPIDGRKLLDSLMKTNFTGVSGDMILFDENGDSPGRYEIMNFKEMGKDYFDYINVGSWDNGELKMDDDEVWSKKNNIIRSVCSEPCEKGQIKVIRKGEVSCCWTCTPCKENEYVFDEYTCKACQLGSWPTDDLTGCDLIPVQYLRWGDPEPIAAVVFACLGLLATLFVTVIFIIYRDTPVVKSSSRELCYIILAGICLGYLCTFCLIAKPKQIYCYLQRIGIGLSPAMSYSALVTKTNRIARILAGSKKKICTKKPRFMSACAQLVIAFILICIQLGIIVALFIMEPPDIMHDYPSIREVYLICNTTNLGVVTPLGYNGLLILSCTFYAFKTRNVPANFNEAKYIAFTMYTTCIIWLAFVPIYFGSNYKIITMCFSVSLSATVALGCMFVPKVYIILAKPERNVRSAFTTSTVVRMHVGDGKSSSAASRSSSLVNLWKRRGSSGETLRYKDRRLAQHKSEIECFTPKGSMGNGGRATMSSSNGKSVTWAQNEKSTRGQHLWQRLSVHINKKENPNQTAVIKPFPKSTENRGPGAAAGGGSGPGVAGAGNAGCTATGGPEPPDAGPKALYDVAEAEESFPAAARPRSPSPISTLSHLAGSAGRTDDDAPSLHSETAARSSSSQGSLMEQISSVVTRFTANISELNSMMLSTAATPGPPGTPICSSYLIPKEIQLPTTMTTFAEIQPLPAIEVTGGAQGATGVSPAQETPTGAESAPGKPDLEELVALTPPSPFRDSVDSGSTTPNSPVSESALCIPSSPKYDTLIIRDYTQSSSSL
Assay endpoint: IC50

**Q:** IC50 for "O=C(c1ccc(F)cc1)N1CCC[C@H](c2nc(-c3ccc[nH]3)no2)C1" ?
**A:** < 30 µM

###

molecular target: rat mGluR5 receptor (Rattus norvegicus); assay: mGluR5 assay on HEK-expressing rat mGluR5 (fluorescent cell based Ca2+ mobilization assay); settings: HEK-293 cells stably expressing rat mGluR5; no co-addition of glutamate; mean of at least three independent experiments in duplicate; read-out: Ca++ Flux (mean EC50)
pEC50: −log10 of the molar value.
# reported pEC50; entries follow

O=C(c1ccc(F)cc1)N1CCC[C@H](c2nc(-c3cc(F)c[nH]3)no2)C1 ... > 6.00
O=C(c1ccc(F)cc1)N1CCC[C@H](c2noc(-c3cc(C(F)(F)F)c[nH]3)n2)C1 ... < 5.00
O=C(c1ccncc1F)N1CCC[C@H](c2noc(-c3cc(C(F)(F)F)c[nH]3)n2)C1 ... 5.00 to 6.00

**Q:** Record request: pEC50 value, item O=C(c1ccc(F)cc1)N1CCCC(c2noc(-c3ncc[nH]3)n2)C1 (stereo not drawn)
**A:** 5.00 to 6.00

**Q:** Requested read-out: pEC50. Entry: "O=C(c1ccc(F)cc1)N1CCC[C@H](c2noc(-c3cc([N+](=O)[O-])c[nH]3)n2)C1"
**A:** > 6.00

**Q:** For the compound shown here, "O=C(c1ccncc1F)N1CCC[C@H](c2nc(-c3cc(Br)c[nH]3)no2)C1" , give the reported pEC50.
**A:** 5.00 to 6.00

**Q:** Fill blank: measured pEC50 of the compound O=C(c1ccc(F)cc1)N1CCCC(F)(c2nc(-c3ccc[nH]3)no2)C1 (stereo not drawn) is ____.
**A:** 5.00 to 6.00

**Q:** Which pEC50 value belongs to "O=C(c1ccncc1F)N1CCC[C@H](c2nc(-c3cc(F)c[nH]3)no2)C1" ?
**A:** 5.00 to 6.00

**Q:** // lookup pEC50 for O=C(c1ccc(F)c(F)c1)N1CCCC(c2noc(-c3ncc[nH]3)n2)C1 (stereo not drawn)
**A:** 5.00 to 6.00

###

Assay endpoint: melting point

Solved entries (count: 3):
Cc1c[nH]c(-c2noc([C@H]3CCCN(C(=O)c4ccc(F)c(F)c4)C3)n2)c1 ... 166 to 167 °C
O=C(c1ccc(F)c(F)c1)N1CCC[C@H](c2nc(-c3cc(F)c[nH]3)no2)C1 ... 147.5 to 148.2 °C
O=C(c1ccc(F)c(F)c1)N1CCC[C@H](c2nc(-c3ncc[nH]3)no2)C1 ... 156 to 157 °C

Field: next compound
**Q:** I would be grateful if you could share the reported melting point for "O=C(c1ccc(F)c(F)c1)N1CCC[C@H](c2nc(-c3cc4ccccc4[nH]3)no2)C1" .
**A:** 93 to 94 °C

###

target: rat mGluR5 receptor (Rattus norvegicus); construct: expressed in transfected cells; assay: mGluR5 assay on HEK-expressing rat mGluR5 (fluorescent cell based Ca2+ mobilization assay); conditions: HEK-293 cells stably expressing rat mGluR5; no co-addition of glutamate; mean of at least three independent experiments in duplicate; read-out: Ca++ Flux (mean EC50)
// reported EC50 for each item listed

**Q:** Which EC50 value belongs to O=C(c1ccc(F)nc1)N1CCC[C@H](c2nc(-c3cc(Cl)c[nH]3)no2)C1 [Example 65] ?
**A:** 1000 to 10000 nM

**Q:** # lookup: EC50 of O=C(c1ccc(F)cc1F)N1CCC[C@H](c2nc(-c3cc4ccccc4[nH]3)no2)C1 [Example 12]
**A:** 1000 to 10000 nM

###

Below, each entry is listed with its recorded melting point.

O=C(c1ccc(F)cc1)N1CCC[C@@H](c2nc(-c3ccc[nH]3)no2)C1 ... 132 to 133 °C
O=C(c1ccc(F)cc1)N1CCC[C@H](c2nc(-c3cc(F)c[nH]3)no2)C1 ... 146.5 to 147.2 °C
Cc1oncc1C(=O)N1CCCC(c2noc(-c3cc4ccccc4[nH]3)n2)C1 (stereo not drawn) ... 175.6 to 177.2 °C
O=C(c1ccc(F)cc1)N1CCC[C@H](c2nc(-c3ccc[nH]3)no2)C1 ... 130 to 135 °C
O=C(c1ccc(F)cc1)N1CCCC(c2noc(-c3cc4ccccc4[nH]3)n2)C1 (stereo not drawn) ... 199 to 201 °C

Pending compound:
**Q:** Need melting point of O=C(c1ccc(F)nc1)N1CCCC(c2noc(-c3cc4ccccc4[nH]3)n2)C1 (stereo not drawn) , thanks.
**A:** 163.1 to 164.3 °C
